# experimental-target: T1, recombinant human PD-L1-Fc protein (human, UniProt Q9NZQ7 19-238, limits assumed)
# T1 construct: Prepared by Beijing Hanmi Pharmaceutical; The GenBank number is NP_001254635.1
# T1 sequence (Q9NZQ7 19-238 limits assumed): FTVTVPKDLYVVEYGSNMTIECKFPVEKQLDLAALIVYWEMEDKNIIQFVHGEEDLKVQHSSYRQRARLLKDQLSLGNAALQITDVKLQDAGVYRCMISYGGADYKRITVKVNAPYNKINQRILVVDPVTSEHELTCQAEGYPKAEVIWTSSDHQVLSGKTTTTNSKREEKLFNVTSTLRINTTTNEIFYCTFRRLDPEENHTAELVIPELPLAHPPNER
# protocol-details: competition ELISA: PD-L1-Fc coated, competitor biotin-labelled PD-1-Fc
observed-property: IC50 (nM)
Numbers only here, please. The scale is nM.

Below, each entry is followed by its recorded IC50 result.
[
  {
    "binder": "humanized anti-human PD-L1 monoclonal antibody VLS10-VHS7 (antibody, human IgG1, kappa, V domains shown) VH: QVQLVQSGAEVKKPGSSVKVSCTASGFNIEDTYIHWVRQAPGQGLEWMGRIDPANGNTKYDPKFQGRVTITADTSTNTAYMELSSLRSEDTAVYYCGRGLGAWFAYWGQGTLVTVSS VL: DIQMTQSPSSLSASVGDRVTITCKASQDVHTAVAWIHQKPGKAPKLLIYSASNRYTGVPSRFSGSGSGTDFTFTISSLQPEDIATYYCQQHYITPLTFGQGTKLEIKR",
    "IC50 [nM]": 0.749
  },
  {
    "binder": "humanized anti-human PD-L1 monoclonal antibody VLS10-VHS7 P3 (antibody, human IgG1, kappa, V domains shown) VH: QVQLVQSGAEVKKPGSSVKVSCTASGFNIEDTYIHWVRQAPGQGLEWMGRIDPANANTKYDPKFQGRVTITADTSTNTAYMELSSLRSEDTAVYYCGRGLGAWFAYWGQGTLVTVSS VL: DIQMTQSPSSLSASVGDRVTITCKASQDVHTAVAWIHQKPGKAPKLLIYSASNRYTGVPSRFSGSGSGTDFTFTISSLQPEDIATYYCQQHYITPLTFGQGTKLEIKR",
    "IC50 [nM]": 0.617
  },
  {
    "binder": "humanized anti-human PD-L1 monoclonal antibody VLS10-VHS7 P1 (antibody, human IgG1, kappa, V domains shown) VH: QVQLVQSGAEVKKPGSSVKVSCTASGFNIEDTYIHWVRQAPGQGLEWMGRIDPAQGNTKYDPKFQGRVTITADTSTNTAYMELSSLRSEDTAVYYCGRGLGAWFAYWGQGTLVTVSS VL: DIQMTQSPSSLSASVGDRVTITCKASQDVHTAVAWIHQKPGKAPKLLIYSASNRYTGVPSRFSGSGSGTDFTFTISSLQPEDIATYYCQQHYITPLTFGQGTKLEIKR",
    "IC50 [nM]": 0.756
  },
  {
    "binder": "chimeric anti-human PD-L1 monoclonal antibody (antibody, human IgG1, kappa, V domains shown, expressed in ExpiCHO cells; also called Chimeric mAb; Chimeric antibody) VH: EVQLQQSGAELVKPGASVKLSCTASGFNIEDTYIHWVMQRPEQGLEWIGRIDPANGNTKYDPKFQGKATITADTSSNTAYLQLSSLTSEDTAVYYCGRGLGAWFAYWGQGTLVTVSA VL: DIVMTQSHKVMSTSVGDRVTITCKASQDVHTAVAWIHQKPGQSPKLLIYSASNRYTGVPDRFTGSGSGTDFTFTISSVQAEDLAVYYCQQHYITPLTFGAGTTLELKR",
    "IC50 [nM]": 0.596
  }
]

IN: Dear colleague, I am looking for the recorded IC50 of the following binder: humanized anti-human PD-L1 monoclonal antibody VLS15-VHS12 P3 (antibody, human IgG1, kappa, V domains shown) VH: EVQLVQSGAEVKKPGSSVKVSCKASGFNIEDTYIHWVRQAPGQGLEWMGRIDPANANTKYDPKFQGRVTITADTSTNTAYMELSSLRSEDTAVYYCGRGLGAWFAYWGQGTLVTVSS VL: DIQMTQSPSSLSASVGDRVTITCKASQDVHTAVAWIQQKPGKSPKLLIYSASNRYTGVPSRFSGSGSGTDFTFTISSLQPEDIATYYCQQHYITPLTFGQGTKLEIKR
OUT: 0.613

IN: // query: humanized anti-human PD-L1 monoclonal antibody VLS15-VHS12 P1 (antibody, human IgG1, kappa, V domains shown) VH: EVQLVQSGAEVKKPGSSVKVSCKASGFNIEDTYIHWVRQAPGQGLEWMGRIDPAQGNTKYDPKFQGRVTITADTSTNTAYMELSSLRSEDTAVYYCGRGLGAWFAYWGQGTLVTVSS VL: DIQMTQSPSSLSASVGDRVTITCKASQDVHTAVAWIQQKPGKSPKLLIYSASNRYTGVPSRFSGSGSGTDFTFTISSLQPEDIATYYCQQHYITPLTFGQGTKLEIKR
OUT: 0.567
